Provenance of the data: paper PMC6017736

ASSAY TARGET: DYRK1A (Homo sapiens)
ASSAY PROCEDURE: Protein kinase assay ([γ-33P]-ATP, RS peptide substrate), DYRK1A
Type: biochemical
EXPERIMENTAL CONDITIONS: 10 µM compound, compared to controls; read-out: Residual Activity at 10 µM DYRK 1A
Lab note: anything with remaining activity at 10 µM below 60% is marked Y; values at 60% or higher are marked N.

1) Cn1cc(C#N)c2cccc(Cl)c21 [Compound 13c] ... Y
2) N#Cc1cn(Cc2ccccc2)c2c(Br)cccc12 [Compound 13b] ... N
3) Cc1cccc2c(C#N)c(-c3ccccc3)[nH]c12 [Compound 6e] ... Y
4) N#Cc1cn(Cc2ccccc2)c2c(Cl)cccc12 [Compound 13a] ... N

Okay, now this compound:
Is 60% strictly greater than the compound's reported remaining activity at 10 µM? compound: N#Cc1c(-c2ccc(Cl)cc2)[nH]c2c(I)cccc12 [Compound 6m]
Y
